The values you see were collected from PubChem BioAssay AID1745844.

Tested on: rodent lifetime carcinogenesis bioassay, tumor incidence TD50
assay details: carcinogenic potency in animals, long-term in vivo studies, CPDB compilation (AID 1745844)
particulars: mouse; strain B6C3F1; females; by gavage; site: uterus; lesion: endometrium, adenoma; dosed 88 weeks; study length 104 weeks
experimental endpoint: TD50

structure_smiles_string=ClCC(Cl)CCl readout_value="34.9 mg/kg/day"

====

System: rodent lifetime carcinogenesis bioassay, tumor incidence TD50
assay details: carcinogenic potency in animals, long-term in vivo studies, CPDB compilation (AID 1745844)
particulars: mouse; strain B6C3F1; females; in feed; site: any site (literature study); lesion: several types; types named in the paper; dosed 80 weeks; study length 105 weeks
experimental endpoint: TD50 (mg/kg/day)

structure_smiles_string=Nc1ccc(N=Nc2ccccc2)c(N)n1 endpoint_unit=mg/kg/day readout_value=89.7
